- TARGET UNDER TEST: FicD^WT (Homo sapiens, UniProt Q9BVA6)
- Construct: soluble ER luminal domain (residues 105 to 458) of wild-type human FicD; 6xHis-Sumo (N, cleaved yes); made in house; host or cells: Rosetta(DE3) E. coli
- Sequence (Q9BVA6 105-458): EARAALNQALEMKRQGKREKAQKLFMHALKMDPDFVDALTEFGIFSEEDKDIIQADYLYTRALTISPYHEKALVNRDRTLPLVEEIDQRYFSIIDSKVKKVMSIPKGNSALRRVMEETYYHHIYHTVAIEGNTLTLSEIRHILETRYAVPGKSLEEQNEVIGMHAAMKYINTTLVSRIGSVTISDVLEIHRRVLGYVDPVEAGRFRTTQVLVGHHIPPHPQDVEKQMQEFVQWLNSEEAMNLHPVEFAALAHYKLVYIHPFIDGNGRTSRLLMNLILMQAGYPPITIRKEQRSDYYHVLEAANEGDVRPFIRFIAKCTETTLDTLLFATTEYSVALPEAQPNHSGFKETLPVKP
- MEASUREMENT DESCRIPTION: In vitro AMPylation of Δ26hBiP^T229A by FicD^WT (Western blot)
- Type: biochemical
- STATED CONDITIONS: 100 μM metabolite, 500 μM ATP, 5 mM MgCl2
EXPERIMENTAL READOUT: inhibition of AMPylation of Δ26hBiP^T229A by FicD^WT

COMPOUND: CC(C)=CCC/C(C)=C/CC/C(C)=C/COP(=O)(O)OP(=O)(O)O [FPP, farnesyl-pyrophosphate]
MEASUREMENT: inhibited
//
COMPOUND: CC(C)=CCC/C(C)=C\CC/C(C)=C\COP(=O)(O)O [FMP, farnesyl-monophosphate]
MEASUREMENT: did not
//
COMPOUND: CC(C)=CCC/C(C)=C/CC/C(C)=C/CO
MEASUREMENT: did not
//
COMPOUND: CC(C)=CCC/C(C)=C/CO
MEASUREMENT: did not
//
COMPOUND: CC(C)=CCC/C(C)=C/COP(=O)(O)OP(=O)(O)O [GPP, geranyl-pyrophosphate]
MEASUREMENT: inhibited

Entry source: paper PMC12974487
